- tested-target: intestinal Na-phosphate cotransporter (Rattus norvegicus, UniProt Q9JJ09)
- Sequence (Q9JJ09 1-695): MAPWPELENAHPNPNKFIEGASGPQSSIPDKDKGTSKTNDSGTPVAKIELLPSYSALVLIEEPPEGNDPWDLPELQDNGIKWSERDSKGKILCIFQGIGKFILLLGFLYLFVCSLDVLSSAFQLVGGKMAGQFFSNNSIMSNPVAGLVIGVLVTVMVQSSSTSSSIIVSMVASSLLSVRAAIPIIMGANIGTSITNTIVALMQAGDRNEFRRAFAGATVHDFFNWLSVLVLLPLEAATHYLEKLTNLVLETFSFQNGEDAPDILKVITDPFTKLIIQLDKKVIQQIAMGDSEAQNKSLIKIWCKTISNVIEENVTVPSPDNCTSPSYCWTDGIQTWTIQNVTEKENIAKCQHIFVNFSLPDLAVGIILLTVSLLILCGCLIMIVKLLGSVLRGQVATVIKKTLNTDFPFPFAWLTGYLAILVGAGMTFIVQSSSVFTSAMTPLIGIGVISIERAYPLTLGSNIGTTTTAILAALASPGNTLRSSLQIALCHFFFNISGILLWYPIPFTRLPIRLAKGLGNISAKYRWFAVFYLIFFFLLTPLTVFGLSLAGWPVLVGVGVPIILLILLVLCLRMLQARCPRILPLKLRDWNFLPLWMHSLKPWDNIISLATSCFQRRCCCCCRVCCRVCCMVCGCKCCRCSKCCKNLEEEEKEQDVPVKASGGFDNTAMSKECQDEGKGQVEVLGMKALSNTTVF
- Format: biochemical
- Set-up: other: intestinal BBMV; 3-second exposure of vesicles and substra; 2′-FPP vs 2′-PP
- condition-details: read-out: IC50 for inhibition of Na-dependent phosphate uptake
attribute-measured: pIC50
Reminder that pIC50 is minus the log10 of a molar concentration.

Exam item: What measured pIC50 goes with O=C(CCc1ccc(O)cc1)c1c(O)cc(O)cc1OP(=O)(O)O ?
Marked response: 7.34

###

- tested-target: intestinal brush border membrane Na/phosphate cotransporter, NaPi 2b (Rattus norvegicus)
- Construct: Rat duodenum/jejunum intestinal strips 1 cm square were incubated in DMEM
- protocol: cell-based
attribute-measured: IC50
A bare number is not enough; add the unit after it.

Exam item: What measured IC50 goes with O=C(CCc1ccc(O)cc1)c1c(O)cc(O)cc1OP(=O)(O)O ?
Marked response: 15 µM
